Field: purity. Provide a value for each of the molecules that follow.
- protocol-description: Stability experiment: purity after 10 days of humidity, heat or light
- Assay type: physicochemical
- measurement-setup: 92.5% RH for 10 days
// keep it numeric: no unit symbol after the value

## Input Return purity (reported value) for this molecule: C=CC(=O)Nc1cc(N2CCN(CC)C3(CC3)C2)ccc1Nc1cc(N(C)C(=O)Nc2c(Cl)c(OC)cc(OC)c2Cl)ncn1 [Crystal form B]
## Output 99.73

## Input Return purity (reported value) for this molecule: C=CC(=O)Nc1cc(N2CCN(CC)C3(CC3)C2)ccc1Nc1cc(N(C)C(=O)Nc2c(Cl)c(OC)cc(OC)c2Cl)ncn1 [Crystal form C]
## Output 99.68

## Input Return purity (reported value) for this molecule: C=CC(=O)Nc1cc(N2CCN(CC)C3(CC3)C2)ccc1Nc1cc(N(C)C(=O)Nc2c(Cl)c(OC)cc(OC)c2Cl)ncn1 [Amorphous form]
## Output 94.83

## Input Return purity (reported value) for this molecule: C=CC(=O)Nc1cc(N2CCN(CC)C3(CC3)C2)ccc1Nc1cc(N(C)C(=O)Nc2c(Cl)c(OC)cc(OC)c2Cl)ncn1 [Crystal form E]
## Output 99.54

## Input Return purity (reported value) for this molecule: C=CC(=O)Nc1cc(N2CCN(CC)C3(CC3)C2)ccc1Nc1cc(N(C)C(=O)Nc2c(Cl)c(OC)cc(OC)c2Cl)ncn1 [Crystal form A]
## Output 99.83

## Input Return purity (reported value) for this molecule: C=CC(=O)Nc1cc(N2CCN(CC)C3(CC3)C2)ccc1Nc1cc(N(C)C(=O)Nc2c(Cl)c(OC)cc(OC)c2Cl)ncn1 [Crystal form D]
## Output 99.54

###

Field: purity. Provide a value for each of the compounds that follow.
- protocol-description: Stability experiment: purity after 10 days of humidity, heat or light
- Type: physicochemical
- measurement-setup: 60° C. for 10 days
// keep it numeric: no unit symbol after the value

## Input Return purity (reported value) for this compound: C=CC(=O)Nc1cc(N2CCN(CC)C3(CC3)C2)ccc1Nc1cc(N(C)C(=O)Nc2c(Cl)c(OC)cc(OC)c2Cl)ncn1 [Crystal form B]
## Output 99.72

## Input Return purity (reported value) for this compound: C=CC(=O)Nc1cc(N2CCN(CC)C3(CC3)C2)ccc1Nc1cc(N(C)C(=O)Nc2c(Cl)c(OC)cc(OC)c2Cl)ncn1 [Crystal form A]
## Output 99.81

## Input Return purity (reported value) for this compound: C=CC(=O)Nc1cc(N2CCN(CC)C3(CC3)C2)ccc1Nc1cc(N(C)C(=O)Nc2c(Cl)c(OC)cc(OC)c2Cl)ncn1 [Crystal form C]
## Output 99.66

###

- protocol-description: Granularity experiment (D50, D90)
- Type: physicochemical
- measurement-setup: granularity
- Excerpt: […]
value-kind: D90 (μm)
Give the number; μm is assumed, so skip it.

## Input Return D90 (reported value) for this compound: C=CC(=O)Nc1cc(N2CCN(CC)C3(CC3)C2)ccc1Nc1cc(N(C)C(=O)Nc2c(Cl)c(OC)cc(OC)c2Cl)ncn1 [Crystal form A]
## Output 72.86

## Input Return D90 (reported value) for this compound: C=CC(=O)Nc1cc(N2CCN(CC)C3(CC3)C2)ccc1Nc1cc(N(C)C(=O)Nc2c(Cl)c(OC)cc(OC)c2Cl)ncn1 [Crystal form E]
## Output 69.99

## Input Return D90 (reported value) for this compound: C=CC(=O)Nc1cc(N2CCN(CC)C3(CC3)C2)ccc1Nc1cc(N(C)C(=O)Nc2c(Cl)c(OC)cc(OC)c2Cl)ncn1 [Crystal form B]
## Output 71.56

## Input Return D90 (reported value) for this compound: C=CC(=O)Nc1cc(N2CCN(CC)C3(CC3)C2)ccc1Nc1cc(N(C)C(=O)Nc2c(Cl)c(OC)cc(OC)c2Cl)ncn1 [Crystal form C]
## Output 70.88

## Input Return D90 (reported value) for this compound: C=CC(=O)Nc1cc(N2CCN(CC)C3(CC3)C2)ccc1Nc1cc(N(C)C(=O)Nc2c(Cl)c(OC)cc(OC)c2Cl)ncn1 [Amorphous form]
## Output 22.82

## Input Return D90 (reported value) for this compound: C=CC(=O)Nc1cc(N2CCN(CC)C3(CC3)C2)ccc1Nc1cc(N(C)C(=O)Nc2c(Cl)c(OC)cc(OC)c2Cl)ncn1 [Crystal form D]
## Output 70.49
